# system: PI3Kγ (Homo sapiens, UniProt P48736, Q459R)
# Construct: Constructs lacking the N-terminal 144 aa; His tag (C); construct from the Roger Williams lab (MRC LMB)
# Sequence (P48736 with tags, fused parts or gaps Q459R): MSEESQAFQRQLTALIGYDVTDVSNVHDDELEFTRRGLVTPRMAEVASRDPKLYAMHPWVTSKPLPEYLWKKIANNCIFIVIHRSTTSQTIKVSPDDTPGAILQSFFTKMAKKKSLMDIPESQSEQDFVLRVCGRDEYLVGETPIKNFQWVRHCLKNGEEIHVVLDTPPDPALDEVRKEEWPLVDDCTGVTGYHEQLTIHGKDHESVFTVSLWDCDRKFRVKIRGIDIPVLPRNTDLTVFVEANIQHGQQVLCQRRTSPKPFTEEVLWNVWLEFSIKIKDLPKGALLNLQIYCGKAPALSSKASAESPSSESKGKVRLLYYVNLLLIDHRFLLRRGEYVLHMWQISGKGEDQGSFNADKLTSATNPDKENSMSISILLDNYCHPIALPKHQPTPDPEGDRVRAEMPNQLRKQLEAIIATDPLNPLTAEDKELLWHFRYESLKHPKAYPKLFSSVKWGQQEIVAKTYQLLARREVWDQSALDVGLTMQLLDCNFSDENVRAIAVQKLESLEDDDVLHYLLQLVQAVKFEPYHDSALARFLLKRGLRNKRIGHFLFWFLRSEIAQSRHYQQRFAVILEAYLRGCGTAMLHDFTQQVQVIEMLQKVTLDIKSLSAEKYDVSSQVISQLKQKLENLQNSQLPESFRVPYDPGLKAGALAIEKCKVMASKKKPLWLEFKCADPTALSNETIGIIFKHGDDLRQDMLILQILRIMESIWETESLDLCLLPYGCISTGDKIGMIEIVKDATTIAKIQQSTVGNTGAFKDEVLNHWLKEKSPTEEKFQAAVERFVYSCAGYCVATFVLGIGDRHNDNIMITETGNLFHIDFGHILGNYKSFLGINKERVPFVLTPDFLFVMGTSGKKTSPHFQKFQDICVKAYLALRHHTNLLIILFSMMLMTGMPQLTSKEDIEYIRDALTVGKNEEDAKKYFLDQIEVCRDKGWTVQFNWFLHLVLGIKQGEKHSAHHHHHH
# experiment_description: PI3K KinaseGlo assay, PI3Kgamma
# experimental_conditions: 150 nM enzyme, 1 μM ATP, 90 mins
measurement_kind: IC50 (nM)

Some solved entries appear below for comparison.
>  <compound>
CCN(CC)c1ncc2c(n1)-c1sc(NC(=O)N3CCC[C@@]3(CO)C(N)=O)nc1CC2 [Example 8]

>  <IC50, nM>
180

$$$$
>  <compound>
CC(C)(CF)c1nc2c(s1)CCc1nc(NC(=O)N3CCC[C@H]3C(N)=O)sc1-2 [Example 32]

>  <IC50, nM>
131

$$$$
>  <compound>
CCN(CC)c1ncc2c(n1)-c1sc(NC(=O)N3C[C@@H](O)C[C@H]3C(N)=O)nc1CC2 [Example 26]

>  <IC50, nM>
138

$$$$
>  <compound>
CCN(CC)c1ncc2c(n1)-c1sc(NC(=O)N3C[C@@H](F)C[C@H]3C(N)=O)nc1CC2 [Example 17]

>  <IC50, nM>
153

$$$$
>  <compound>
CCN(CC)c1ncc2c(n1)-c1sc(NC(=O)N3CC[C@@H](C)[C@H]3C(N)=O)nc1CC2 [Example 21]

>  <IC50, nM>
237

$$$$
>  <compound>
CC(C)(C)c1ncc2c(n1)-c1sc(NC(=O)N3CCC3C(N)=O)nc1CC2 (stereo not drawn) [Example 24]

>  <IC50, nM>
98

$$$$

a = CC(C)(C)c1nc2c(s1)CCc1nc(NC(=O)N3CC[C@H]3C(N)=O)sc1-2 [Example 30]
b = CCN(CC)c1ncc2c(n1)-c1sc(NC(=O)N3C[C@H](F)C[C@H]3C(N)=O)nc1CC2 [Example 16]
**Q:** Between a and b , which one has the lower reported IC50 value? Lab note: record the label of whichever item you select.
**A:** b
(b: 74 nM, a: 119 nM)

I = CCN(CC)c1ncc2c(n1)-c1sc(NC(=O)N3CC[C@H](C)[C@H]3C(N)=O)nc1CC2 [Example 2]
II = CCN(CC)c1ncc2c(n1)-c1sc(NC(=O)N3CCC[C@@]3(COC)C(N)=O)nc1CC2 [Example 5]
**Q:** // compare measured IC50 between I and II ; output the lower one Respond using the label that marks the chosen record.
**A:** I
